Test Summary: protease stability score; higher = more stable; yeast display proteolysis, trypsin and chymotrypsin;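 note: log10 excess protease needed over predicted unfolded state with 0 meaning unfolded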
Measured Parameter: protease stability score

> print(dat)
                                   residues        measured.parameter  result
1  DPKKMKEIADKMAKAVLNGNEEEVKKFGAPNVEAEVADQRTQGVDEIVKMLQKVKRMGMEVHTEEKREEGDFIEVHTKYRRGDTEATMTVQYYADNGKVKKIKVEYDRDAKKLFKHG  protease stability score   0.232
2  EEEKLKKVAEEVFRMVQNGNYDQLAKLGKDNAEFQFADHRLKGKEQYKKYLEELVKRGVQFEVKKAQLKDNTVTMVTKAKYADTEATVTVQAKYEGGKLDRARVKLSEEVKKVLKKG  protease stability score   0.065
3  DDEKVAEQIMNEVLTAIKNNDPQEAADNMDKDARAEVGDNDLTGRERLSKWWVTMANRADHITAHVDSVDEQGDKIHVVWKYTADINGQQVSKDIKFVVVRQNGRVKIKRIKND  protease stability score    1.11

---

Test Summary: protease stability score; higher = more stable; yeast display proteolysis, trypsin and chymotrypsin;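 note: log10 excess protease needed over predicted unfolded state with 0 meaning unfolded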
Measured Parameter: protease stability score

> print(dat)
                                   residues        measured.parameter  result
1  DEHDAAKRAEEAVRRANSGDEKDALRLIDPNATVQVGDKNYHGREQVRRVVEELTERFDHIQFKHVSLQGNRVTARADATHNGRTEKMIFIVRAHNGRVKSWKIESS  protease stability score  -0.093
2  DEHNNEMARKVLHAWRKGDENRVKRMLDPNARIVIGDKTIHGMEQMQTWVQELKKEITIDLKSVHVQSQGDKANVEFTHKQKDNGKPDSRKVTVIFVFSNGRIKRIQVDDDG  protease stability score   0.033
3  DQEHYEKIAKHMSDVLRTGNPDDMLRMIDPNARLEVGDKRWNGRHKIKKFLETFVKSADHVKVRHVEVSGNDITLDVVAHVNGRSVKFNVHANVHNGRIKEVKFDPRAWRDLQT  protease stability score   0.505
4  DEEQIVNRLWTEAQKNWEEGNETEIANQFDPNARVNVGEKDYHGTEQIMKWVKEILRHADSVRYSIDSIDVNGDTVYVHFTMVMRHNGQKESERIIATMKVDNGEARFTDIKQG  protease stability score   0.737
5  DEDAERRMREQLKVFNRGNPDQMVKYMDKDARIEVGDTVVEGREDWRHEIDKQKKEAKYKIDVKRVDVDGDDLTIDATISVDHNGKPREKKLIVEAKLHNGKLKHARYDNRG  protease stability score   -0.05
6  DEKEKAEDFMRKMQKIAKTNNPTELDDQFDEDAKLVVGDKRYHGRKQMQKHYKELRKRVDHFRLEVKRIDVSGDKVRFDAKYEADVNGRRETVDMRFVVRRVGDKDRAENAQWK  protease stability score   0.285

---

Test Summary: protease stability score; higher = more stable; yeast display proteolysis, trypsin and chymotrypsin;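 note: log10 excess protease needed over predicted unfolded state with 0 meaning unfolded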
Measured Parameter: protease stability score

> print(dat)
                                   residues  result
1  DDTTRAKEWAEELNRIYRNGDPKELEKQMDKDVRLIIGEKHIHGRSQAMNWMRELMKKADHIELRIHDVKVQGENVTVVVVYRINVNGRDVQRRVIIVAEVHNGHLKIKEMHES    1.88
2  DEELITSANEMLQQLTTGNPQEIEKQADPNARVVVGDKTYTGMDQMARDRATEVQQIRRSFRIKTVQNQGDNANIHAEYEFNINGQPRTFELTLNVEAHNGKFVHIKYHLDPDHLNKLES  -0.078
3  DSRELDEFIHKFAQVIRKGNPRDAMKNVDKDARAVVGNKHINGRDQFHKWIEDLNKTIDHFEIVHVEVEGDRALMDVQVNINGKTRRIRLTAHVHNGRFKDVRVDPENERKLNQ   0.011
4  DETNVRSVERFVHALKQGDPDKLHRNADPNVKVQIGDKVIHGREELSKDQKRRNKSMRLSYKDYRNEDTNGNVIVHLTFTSERDGQPRENEYRAHITLNNGKIREVDMKSDG  -0.288
5  SEERAKKVAKKLMEAFVKGNKDDAKDALQEDVQLHIAGTTYHGPKAVEKLIEFWQRVGVEVKVQEVRVKGNHVEIQTQVHLGDNTTTVRYKIQVEGDKVKKLQLNFSEEVFKQAKDG    1.76

---

Test Summary: protease stability score; higher = more stable; yeast display proteolysis, trypsin and chymotrypsin;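 note: log10 excess protease needed over predicted unfolded state with 0 meaning unfolded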
Measured Parameter: protease stability score

> print(dat)
                                   residues  result
1  DEELHTIANEFNKALDRGDRKKLVDLADPNAQAVVGDQTLHGMEHVAHTIKKRQEEMRLDLKSVSVSVKGNNAILNFNALLHVNGKPVEISMRIILTVSNGKIQVIVEQFDPEQMRTARK  -0.289
2  DESVENTVTEILEAEQQNNEEELRRLADPNAEVRVGEKTIHGMDEAVHQIAHELKQQRVEYSDMKISVNNGRARIDVEVEVEKNGRPHTSHYERTIEMHNGRMTHMEQRDDG  -0.524
3  DEEAQKQFEEFLDVLETGDPKRLQDNMDEDARVVIGDKTITGREEAAKEWHKIRQEISVEIKHVHMEAQGDKLNATLDVVWNVNGRPHRFKFVIIMDFHNGRIKQIEIRMDERHLKKLRT   0.499

---

Test Summary: protease stability score; higher = more stable; yeast display proteolysis, trypsin and chymotrypsin;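 note: log10 excess protease needed over predicted unfolded state with 0 meaning unfolded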
protease stability score of 0.8 or higher: True. Under 0.8: False.

> print(dat)
                                    residues  class.assignment
 1  DERDQNRKAEEAAHALRDGDERRISEMFDKNAHATVGDQTYTGREEIMKWVHDIKKRYDHVTLHDVKVHNGRADLDMVFNHNGKEDRIRIDIQFQGDKIKHVSVRSK              True
 2  DEENAKIIENLIRANETNDPDRAVQLADENVDFRIGDRTYRGMDEYATQMAHEFKEIEMRIHLKTFDTQGEKVRLEADVKRTHNGKPESFRAVMVANASNGRVVEIDVQMDK              True
 3  DEEKQAHHLLRLLQEVLNNGDEDKARKLADPNVELSVGDKEVHGREKFTKYLYQISKRSDHANMSLTRIDTKPGRIVLVFTLRLNHNGNNTHKRMRAVASVRNGQVVVKHLVDQ             False
 4  DEEDQEKFARDFVRILKDGNPDRARKMFDENARVHVGEKVVHGRDQIRTLVEEIHRRADRINITDFRVHGNSFVFIVVLEKNGETRSFTIVVIVHNGRAQSMHVQSN              True
 5  DHTKQAETVARQMLEQLRDGNPEELKNMFDENVEADIGDTRYHGRESMVEFWQTILTRVDRNRLHIVDVQVQGNKIIVRVRVSFDRNGRQKEEEYVIVVRVNNGHYTADVVSLT             False
 6  DEKETRKLLKDVAEAFENGNNEEIKKLLKDDVEVQYADKRVHGPDQVVEMVKKYQDLGAKVEYKKLDVRGDTVTVDVQADLGGRTAEFKVTYQAQGQKVDRFKVKYDETAKKLIKHG             False
 7  DEEHLKRVNETVMDIVKNNDPNQLREMVDPNVKVDVGDQRVHGRDKAAEVVKEWEKHVDRVTIRHVSVHNGRVRVVFQLESNGKTKDVQILFVYENGRIHSMRFTSQ              True
 8  DEEEAEKILEKLVKAVENGDETKLMQLGADGVRYKVGDREDHGPEAIQKAMQYLKRYGVRVEFKEVKHKGDRVTTVAEYENGDKRNTVTIHAHAKGGKIDEVQVNVDEDLVKFIKHG             False
 9  DETAMEVAERFLENINNGNPEEATKQFDPNARFIVGDKRLTGQEQVKSEIEDQKKHIDVNYDVKRVEIDGDKALLELDVQNEHNGRPRTDSAVITMEAHNGKITHMQRDHDG             False
10  DEKNEDAARKLFNAWKQNDPDHARKLADPNVRFKYGDTQVHGRDQYARELRETNKQMRLEYKHVTIRVKNGNAEVNMNVRYNHNGQPRESTRRMTFKVENGKLVDVDIKTDK             False
11  DEETKDWVDRFFQALHKNNEEELEQLMDPNAHINIGDKVWHGREEFRREHERQAKHWRFTQDITRIDVKGNKARLRVRFRMNYDGKPKDSKARIEIIIHNGKLKEYRQKDDG             False
12  DEDAERHVTEMIHAYKHNNPEKVQTYMDKHVKIKVGDKTVKGREERAKELRKQKDQMRVDYDVHSMNVKGDKITARLRVDITVNGQPHTFEYHLIVKWTNGKIQELSVEFPEEDQKKQSR             False
13  DEEAQKAAERVWKAIERGNEEELHRLIDPDVRIKVGDKDYHGREHYVESVVEIMTTIRFTIHRMEIKVSGERVIIEYHYEFSVNGQPDTMRVIVYMVAHNGKVKNIHVKMSPEKRDRFRE              True
14  EDNRLQEIMEKFIRLMQTGDDHTAANLFDEDARIEYGDHSIRGREEFQKYAKELKDRVDHFDVQTIKNRGDEVHIDVNIHVDGKRVRVNMVVQAENGKVKKLRLDPEVVRHMEK              True
15  DEHDLDKWRQVMEHNDFDKLVRLADPNVKIVVGDQEYHGREQYKELMDKLEHHVDHMELHSVSITNGEVHARLTVIINGKSIEYVFKFVVDNGKLKKLRIQFTDPEDEKIWKRAMS              True
16  DEEDLSDVLDKMDKAIVRGDEQKLQDLADPNVRAEIGDQKYHGRDAITMFFKVLTEQVDHMRIKTVELQGNKLYIVVSAHFNGQTYDVRFVADAHNGRITRIYVDPQAQKRMEE              True
17  DEKALRQFEKFMEAIKNGDEEKVVQLVDPNATVRYGDKKVEGREQIKDQMKKLHEEMRIQVNSVDVEDHNGRAHVRIDVIQEHNGTPDRAQLRANMSASNGRIKDLEFTKTK             False
18  DHERLKEFIKIQQENNPDQLRNQMDPNVKARVGDKEFKGREQVVKWLKRIMDQADHIHYDDLKSQGNSVTINAVVEVNGKSFQYNMVVEFHNGRIREIKVEVRNHRVKEILERIEG              True
19  DERLREQLNRFHKLLEKNNPEKLVEQLDPNAEFEVGDKQYHGREQIEDWQRRLAKRQRFSRDFKSIDASNGNVRATFRVVITHDGKPDDYLAVMHFQVKNGKFKRFVIKRNQ             False
20  DEELQSDVEEFLRNQTTGDEDRLKELADENAKVHVGDKTLHGMDQIKRYERQEREEMRIDYKHWDIKVSGNQVTVHFDFVNRFNGKPQHVSVILHVQFDNGKIKAADYRTDPREREKIRS             False
21  DEREMKQFIELMKQKQTGNEHHVREMFDPNAQIKVGDKTVHGKDNIREQAHRERKEMREDFRIESLDHDGERVVIKYEVQQNHNGRPKTYDVEAEAEVHNGHFKFVSVDNTE             False
22  DEESLDHLRKVLEKNDPDQLTELMDPDATAVIGNTEVHGREKVVTIMRRIYERADSIHIDRFSHQGDRLVADMQVNINGKKMRYEYVIRVHNGRIKYVKFHVTSEDVERDLTRAVS              True

Cited source for all entries: the NTF2 design screens of Basanta et al. (2020)
